The measured values listed here are drawn from BindingDB's records for doi:10.1124/jpet.102.034249.

Target: 5-hydroxytryptamine receptor 1D (Homo sapiens)
Sequence (P28221 whole entry): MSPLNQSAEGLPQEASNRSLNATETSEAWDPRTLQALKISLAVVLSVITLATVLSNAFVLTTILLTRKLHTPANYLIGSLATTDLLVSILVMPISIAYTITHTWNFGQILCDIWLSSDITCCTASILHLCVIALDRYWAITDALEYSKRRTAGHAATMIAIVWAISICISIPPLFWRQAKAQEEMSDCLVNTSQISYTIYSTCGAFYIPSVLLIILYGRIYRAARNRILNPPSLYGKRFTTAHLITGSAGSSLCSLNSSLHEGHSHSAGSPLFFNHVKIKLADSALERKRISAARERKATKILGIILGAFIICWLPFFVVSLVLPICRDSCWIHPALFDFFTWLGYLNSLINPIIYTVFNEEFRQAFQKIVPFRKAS

chem-smiles: Nc1c(Cl)cc(-c2nn(C3CCN(CCc4ccccc4)CC3)c(=O)o2)c2c1OCCO2
Ki: 7.99 µM

###

Biological target: 5-hydroxytryptamine receptor 5A (Homo sapiens)
Sequence (P47898 whole entry): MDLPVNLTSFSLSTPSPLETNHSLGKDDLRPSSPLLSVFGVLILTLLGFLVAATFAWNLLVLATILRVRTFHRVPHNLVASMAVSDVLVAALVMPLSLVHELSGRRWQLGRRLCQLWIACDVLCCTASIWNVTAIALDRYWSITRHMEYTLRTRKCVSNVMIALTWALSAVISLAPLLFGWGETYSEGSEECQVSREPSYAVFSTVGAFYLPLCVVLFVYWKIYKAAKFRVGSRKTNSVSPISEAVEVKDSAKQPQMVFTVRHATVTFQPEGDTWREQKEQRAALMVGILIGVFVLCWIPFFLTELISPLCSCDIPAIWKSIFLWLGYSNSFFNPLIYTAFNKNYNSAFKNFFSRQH

chem-smiles: Nc1c(Cl)cc(-c2nn(C3CCN(CCc4ccccc4)CC3)c(=O)o2)c2c1OCCO2
target-or-system: 5-hydroxytryptamine receptor 5A (Homo sapiens)
Ki: > 10 µM

###

Target: 5-hydroxytryptamine receptor 6 (Homo sapiens)
Sequence (P50406 whole entry): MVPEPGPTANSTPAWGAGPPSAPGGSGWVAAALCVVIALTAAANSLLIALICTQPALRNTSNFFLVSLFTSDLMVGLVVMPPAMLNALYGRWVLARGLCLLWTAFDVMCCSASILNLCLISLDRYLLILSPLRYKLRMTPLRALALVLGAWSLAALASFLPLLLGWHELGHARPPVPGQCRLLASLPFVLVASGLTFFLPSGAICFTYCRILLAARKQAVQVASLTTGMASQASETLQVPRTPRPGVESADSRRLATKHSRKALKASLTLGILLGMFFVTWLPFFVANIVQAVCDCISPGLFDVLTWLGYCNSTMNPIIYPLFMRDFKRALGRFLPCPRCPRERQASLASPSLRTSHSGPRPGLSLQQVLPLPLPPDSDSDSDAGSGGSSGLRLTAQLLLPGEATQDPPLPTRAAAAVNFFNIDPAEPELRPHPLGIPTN
pKi: −log10 of the molar value.

chem-smiles: Nc1c(Cl)cc(-c2nn(C3CCN(CCc4ccccc4)CC3)c(=O)o2)c2c1OCCO2
pKi: 5.59
